The measured values listed here are drawn from paper PMC12657586.

Target: MRGPRX2 (Mas-related G protein-coupled receptor X2) (Homo sapiens)
Sequence (Q96LB1 whole entry): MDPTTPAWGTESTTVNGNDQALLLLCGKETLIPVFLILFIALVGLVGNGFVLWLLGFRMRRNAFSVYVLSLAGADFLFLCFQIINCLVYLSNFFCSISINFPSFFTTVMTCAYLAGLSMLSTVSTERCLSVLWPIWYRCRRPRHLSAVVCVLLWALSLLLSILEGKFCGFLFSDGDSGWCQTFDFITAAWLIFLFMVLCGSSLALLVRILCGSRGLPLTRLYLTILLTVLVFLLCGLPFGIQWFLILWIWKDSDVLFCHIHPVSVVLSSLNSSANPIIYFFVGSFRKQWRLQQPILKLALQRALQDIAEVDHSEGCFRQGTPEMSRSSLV
Assay: Fluo-4 calcium flux assay in MRGPRX2-transfected HEK-293 cells, antagonism of LL-37
Type: cell-based
experimental-endpoint: IC50 (µM)
Kindly provide the numeric value in µM only, without the unit symbol.

Exercise: Which measured IC50 value corresponds to COC(=O)c1cc2cc(NC(N)=O)ccc2cc1-c1cc2c3c(c(O)ccc3c1)C(C)C(C=O)=C2 (stereo not shown) ?
Solution: 12.3
